# Test system: tyramine oxidase
# assay overview: Substrate specificity of tyramine oxidase
# Assay type: biochemical, Arthrobacter sp. B-0813
measured attribute: Activity of the enzyme on the substrate (in words)

# mol smiles, measurement
rows = [
    ("NCCc1ccc(Cl)cc1", "activity"),
    ("CCCCN", "activity"),
    ("NCCc1ccccc1", "activity"),
]

###

Listing of entries alongside the reported Relative Activity (%).
# Tested on: tyramine oxidase
# assay overview: Effect of various substances on the activity of tyramine oxidase
# Type: biochemical, Arthrobacter sp. B-0813
# protocol conditions: amount added 5 mM; control (no addition) = 100.0

# mol smiles, Relative Activity (%)
records = [
    ("[Na+].[Na+].[O]=[Mo](=[O])([O-])[O-]", 39.7),
    ("[Cl-].[Li+]", 82.8),
    ("[Ca+2].[Cl-].[Cl-]", 86.2),
    ("[Cl][Mn][Cl]", 82.8),
    ("[Ba+2].[Cl-].[Cl-]", 96.6),
    ("[N-]=[N+]=[N-].[Na+]", 98.3),
    ("Cl.N", 96.6),
    ("[Cl-].[Cl-].[Co+2]", 86.2),
]
